Molecular target: Peregrin (Homo sapiens)
Sequence (whole entry): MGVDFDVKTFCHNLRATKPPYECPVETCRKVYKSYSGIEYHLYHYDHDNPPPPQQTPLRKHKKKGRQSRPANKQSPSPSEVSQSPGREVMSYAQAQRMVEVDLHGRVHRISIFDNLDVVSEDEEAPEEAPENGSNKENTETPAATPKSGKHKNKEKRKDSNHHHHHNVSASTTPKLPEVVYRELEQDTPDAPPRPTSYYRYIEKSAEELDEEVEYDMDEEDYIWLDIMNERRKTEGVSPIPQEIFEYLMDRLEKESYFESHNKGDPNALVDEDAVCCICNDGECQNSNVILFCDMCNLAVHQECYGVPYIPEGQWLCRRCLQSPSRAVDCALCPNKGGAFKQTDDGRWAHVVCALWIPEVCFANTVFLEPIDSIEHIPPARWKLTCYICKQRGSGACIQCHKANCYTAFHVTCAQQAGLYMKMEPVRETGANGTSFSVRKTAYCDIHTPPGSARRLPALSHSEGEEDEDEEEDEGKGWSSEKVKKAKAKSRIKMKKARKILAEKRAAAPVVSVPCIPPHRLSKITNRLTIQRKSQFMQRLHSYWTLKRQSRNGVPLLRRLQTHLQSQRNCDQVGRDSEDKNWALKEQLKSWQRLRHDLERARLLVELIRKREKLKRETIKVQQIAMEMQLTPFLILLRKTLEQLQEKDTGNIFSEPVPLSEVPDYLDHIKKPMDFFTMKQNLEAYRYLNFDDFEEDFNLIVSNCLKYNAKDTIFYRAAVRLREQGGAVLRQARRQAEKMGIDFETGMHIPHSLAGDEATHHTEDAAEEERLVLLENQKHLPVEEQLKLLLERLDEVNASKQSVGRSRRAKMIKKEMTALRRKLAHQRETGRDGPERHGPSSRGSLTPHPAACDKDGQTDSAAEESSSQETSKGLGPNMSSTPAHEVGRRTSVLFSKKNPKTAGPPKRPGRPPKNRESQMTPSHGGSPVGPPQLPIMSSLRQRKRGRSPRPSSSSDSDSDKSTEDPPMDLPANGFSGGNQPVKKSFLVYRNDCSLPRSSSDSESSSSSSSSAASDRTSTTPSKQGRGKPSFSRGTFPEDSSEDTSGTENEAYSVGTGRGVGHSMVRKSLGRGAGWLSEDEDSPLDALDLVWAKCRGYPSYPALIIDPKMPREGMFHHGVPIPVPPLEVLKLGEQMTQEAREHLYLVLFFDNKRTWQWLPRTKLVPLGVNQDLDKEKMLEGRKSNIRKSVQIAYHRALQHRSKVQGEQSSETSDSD
Conditions: Compound concentration 20.0 uM, Protein concentration 2.0 uM, Result type QC Liability
Mark y for reported ΔTm of -2 °C or greater; mark n for anything smaller.

Check out these entries, answers already filled in.
CCn1c(-c2nonc2N)nc2cncc(C(=O)N3CC[C@H](N)C3)c21
y
CN(CC(=O)Nc1ccc(F)c(F)c1F)C(=O)c1ccc2c(c1)OCCO2
y
Cc1cc(OCCC(C)(C)O)cc(C)c1-c1ccc(F)c2c1CC[C@H]2Oc1ccc2c(c1)OC[C@H]2CC(=O)O
n
FC(F)(F)c1ccc(CNc2ccc(Cc3c[nH]c4ncc(Cl)cc34)cn2)cn1
y

# evaluate next
Hi team, for O=C(NCc1ccc(F)cc1)C1CCN(S(=O)(=O)c2cc(Cl)cc(Cl)c2)CC1 , is the recorded ΔTm at or above -2 °C?
y

meta.source: ChEMBL document CHEMBL5308504
